Reported values of growth inhibition for individual entries
# protocol-description: NCI Yeast Anticancer Drug Screen. Data for the sgs1 mgt1 strain (AID 161);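 further: 0% = growth of cultures given vehicle only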
# study-conditions: S. cerevisiae sgs1 mgt1 strain, at 50.0 µM, stronger effect = higher value
# Method: Growth inhibition of yeast strains with defined genetic alterations is measured as a screen for potential anti-cancer activity. Selected strains with alterations in DNA damage repair or cell cycle control were exposed to compounds and growth inhibition was measured relative to vehicle treated controls. The strain used in this assay is sgs1 mgt1
About 79,000 compounds went through this panel and 15% of them were active in at least one assay; those are over-represented in the sample as a whole. Active and inactive are the calls of the source. No stated cut-off is given here; in the data, active means growth inhibition above about 70%; inactive means the rest.

| compound | growth inhibition |
| --- | --- |
| O=S(=O)(c1ccc(N=Cc2cccs2)cc1)c1ccc(N=Cc2cccs2)cc1 | -10.1% (inactive) |
| CC(C)(C#N)CCCCC(C)(C)C#N | 1.2% (inactive) |
| CCCSc1nc2c(=O)n(C)c(=O)[nH]c2n1C | -6.95% (inactive) |
| COc1cc2c3c(c1)SC(C)C(=O)N3CCN2 (configuration not stated) | 2.55% (inactive) |
| COc1ccc(C=O)c(C(=O)O)c1OC | -2.8% (inactive) |

Prompt: Quick one: growth inhibition for NC(=S)NNC(=O)c1cccs1 ?
Completion: 22.6% (inactive)

Prompt: Recorded growth inhibition for Nc1nc(-c2ccccc2)ns1 , please?
Completion: 1.4% (inactive)

Prompt: For the compound shown here, C[n+]1cccc2cccc(N)c21 , give the reported growth inhibition.
Completion: 11.3% (inactive)

Prompt: Fill in: growth inhibition of OC1CCC(C#CC#CC2CCC(O)CC2)CC1 (configuration not stated) is ___
Completion: 3.05% (inactive)

Prompt: Report growth inhibition for CCC1C[N+]2(C)CCc3cc(OC)c(OC)cc3C2CC1=O (configuration not stated) please.
Completion: 12.8% (inactive)

Prompt: What does the record list as growth inhibition for COC(=O)CNc1cccc([N+](=O)[O-])c1 ?
Completion: -3.65% (inactive)

Prompt: growth inhibition lookup needed for CC1=NN(C(=O)c2ccncc2)C(=O)C1N=Nc1ccc(F)cc1 (configuration not stated) , thanks.
Completion: -7.65% (inactive)

Prompt: Can you share its growth inhibition? I mean this compound: Cc1cc(C)c(CCC(=O)O)c(C)c1
Completion: -0.3% (inactive)

Prompt: // query growth inhibition value for entry NCCSCc1ccccc1Cl
Completion: -50.9% (inactive)

Prompt: growth inhibition lookup needed for Cc1ccc(NC(=O)C(=O)CC(=O)c2c(C)n([O-])c3ccccc3[n+]2=O)cc1 , thanks.
Completion: -6.5% (inactive)

Prompt: Recorded growth inhibition of COc1cc2ccncc2cc1O , please.
Completion: -26.3% (inactive)

Prompt: Could you tell me which growth inhibition is on file for O=S1CCS(=O)CCS(=O)CC1 (configuration not stated) ?
Completion: -0.6% (inactive)

Prompt: Entry under review: N#CC(=NCCO)C1=C(O)c2ccccc2C1=O . Reported growth inhibition?
Completion: -16.3% (inactive)

Prompt: Entry O=c1c2c3c(sc2nc2n1N=CN(c1ccc(F)cc1)C2)CCCC3 : reported growth inhibition = ?
Completion: 2.4% (inactive)

Prompt: What measured growth inhibition goes with O=C1NC(=O)C2C1C1C=C3c4ccccc4N(c4ccccc4)C32[C@H]2C(=O)NC(=O)[C@@H]12 (some centres not stated) ?
Completion: 7.15% (inactive)

Prompt: Bench note: what growth inhibition did COC(=O)C(CC(=O)[C@H]1CC[C@H]2[C@@H]3CC[C@H]4C[C@@H](OC(C)=O)CC[C@]4(C)[C@H]3CC[C@]12C)OC(C)=O (some centres not stated) show?
Completion: 57.5% (inactive)

Prompt: May I ask what growth inhibition has been recorded for O=C(Cn1nnc(N2CCCCC2)n1)N/N=C/c1ccccc1O ?
Completion: -9% (inactive)

Prompt: # get_value(readout='growth inhibition', item= NC(CCS(N)(=O)=O)C(=O)O (configuration not stated) )
Completion: -1.85% (inactive)

Prompt: Quick one: growth inhibition of COc1cccc(OC(=O)Nc2ccccc2)c1 ?
Completion: -9.85% (inactive)

Prompt: Field request: growth inhibition | item: N#CC(C#N)=CN1CCCC1
Completion: -6.45% (inactive)
